Reference for the values: paper PMC10247784

system-under-test: human TAS2R1 (Homo sapiens, UniProt Q9NYW7)
Construct: expressed in transfected cells; host or cells: HEK293T-Gα16gust44
Sequence (Q9NYW7 1-299): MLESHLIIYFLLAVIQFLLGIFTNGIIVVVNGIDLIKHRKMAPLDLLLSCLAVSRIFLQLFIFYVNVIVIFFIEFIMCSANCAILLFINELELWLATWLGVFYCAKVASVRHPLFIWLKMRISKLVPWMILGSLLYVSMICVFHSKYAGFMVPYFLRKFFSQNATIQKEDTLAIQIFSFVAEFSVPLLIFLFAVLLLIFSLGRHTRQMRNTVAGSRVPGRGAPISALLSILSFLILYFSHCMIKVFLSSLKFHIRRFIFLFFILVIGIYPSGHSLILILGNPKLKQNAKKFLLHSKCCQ
test-protocol: Calcium imaging assay (FLIPR), HEK293T-Gα16gust44 cells transfected with human TAS2R1
Type: cell-based
recorded-conditions: Time 34.796 s
value-type: RLU (RLU)

> print(dat)
                         compound.structure  value.type  value.units  measured.value
1  C[C@H](CCC(=O)O)[C@H]1CC[C@H]2[C@@H]3[C@@H](O)C[C@@H]4C[C@H](O)CC[C@]4(C)[C@H]3CC[C@]12C         RLU          RLU         591.628
2  C[C@H](CCC(=O)O)[C@H]1CC[C@H]2[C@@H]3CC[C@@H]4C[C@H](O)CC[C@]4(C)[C@H]3CC[C@]12C         RLU          RLU         475.411
3  C[C@H](CCC(=O)O)[C@H]1CC[C@H]2[C@@H]3[C@H](O)C[C@@H]4C[C@H](O)CC[C@]4(C)[C@H]3C[C@H](O)[C@]12C         RLU          RLU         561.258
4  C[C@H](CCC(=O)O)[C@H]1CC[C@H]2[C@@H]3[C@H](O)C[C@@H]4C[C@H](O)CC[C@]4(C)[C@H]3CC[C@]12C         RLU          RLU          744.49

====

system-under-test: human TAS2R14 (Homo sapiens)
Construct: expressed in transfected cells; host or cells: HEK293T-Gα16gust44
Sequence (Q9NYV8 whole entry): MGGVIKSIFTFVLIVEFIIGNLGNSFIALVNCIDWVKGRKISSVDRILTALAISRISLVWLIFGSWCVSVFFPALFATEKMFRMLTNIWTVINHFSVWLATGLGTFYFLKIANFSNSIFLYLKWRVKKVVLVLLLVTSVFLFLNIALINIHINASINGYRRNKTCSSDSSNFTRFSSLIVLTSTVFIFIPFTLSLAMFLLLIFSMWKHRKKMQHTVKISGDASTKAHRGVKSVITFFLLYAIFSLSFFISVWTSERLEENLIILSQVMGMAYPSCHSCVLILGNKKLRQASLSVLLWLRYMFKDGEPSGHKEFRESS
test-protocol: Calcium imaging assay (FLIPR), HEK293T-Gα16gust44 cells transfected with human TAS2R14
Type: cell-based
recorded-conditions: TAS2R14 trace; Time (s) 70.797 (Chenodeoxycholic Acid 70.781)
We begin with a simple list: items and their reported RLU.
value-type: RLU (RLU)

> print(dat)
                         compound.structure             system.under.test  measured.value
1  C[C@H](CCC(=O)NCCS(=O)(=O)O)[C@H]1CC[C@H]2[C@@H]3[C@H](O)C[C@@H]4C[C@H](O)CC[C@]4(C)[C@H]3C[C@H](O)[C@]12C  human TAS2R14 (Homo sapiens)         609.474
2  C[C@H](CCC(=O)NCCS(=O)(=O)O)[C@H]1CC[C@H]2[C@@H]3CC[C@@H]4C[C@H](O)CC[C@]4(C)[C@H]3CC[C@]12C  human TAS2R14 (Homo sapiens)         234.615
3  C[C@H](CCC(=O)O)[C@H]1CC[C@H]2[C@@H]3[C@H](O)C[C@@H]4C[C@H](O)CC[C@]4(C)[C@H]3CC[C@]12C  human TAS2R14 (Homo sapiens)         612.747
4  C[C@H](CCC(=O)NCC(=O)O)[C@H]1CC[C@H]2[C@@H]3[C@H](O)C[C@@H]4C[C@H](O)CC[C@]4(C)[C@H]3C[C@H](O)[C@]12C  human TAS2R14 (Homo sapiens)         583.853
5  C[C@H](CCC(=O)O)[C@H]1CC[C@H]2[C@@H]3[C@H](O)C[C@@H]4C[C@H](O)CC[C@]4(C)[C@H]3C[C@H](O)[C@]12C  human TAS2R14 (Homo sapiens)         846.508
